The origin of these recorded values is PubChem BioAssay (NCI).

Some molecules, each annotated with its measured TGI.
# Tested on: M14 melanoma
# measurementDescription: NCI tumour cell line growth inhibition, 48 h
Where a SMILES comes first, the peptide text is derived from it.
measurementLabel: TGI

INSERT INTO measurements (molecule, recordedvalue) VALUES
  ('CCOC(=O)C1=C(C)NC2=C(C(=O)N(c3ccccc3)C2c2ccccc2)C1c1ccccc1 (stereo not given)', '32.1 µM'),
  ('CC(=O)OCC1OC(N2C(c3ccccc3)=CC(c3ccco3)C(C#N)=C2S)C(OC(C)=O)C(OC(C)=O)C1OC(C)=O (stereo not given)', '16.9 µM'),
  ('COc1ccc2c3c1OC1C(OC)(OC)C=C[C@@]4(Br)[C@@H](C2)N(CC2CC2)CC[C@]314 (stereo not given in full)', '> 100 µM'),
  ('CC(=O)OCC1OC(OC2C(COC(C)=O)OC(Sc3ccccc3C)C(OC(C)=O)C2OC(C)=O)C(OC(C)=O)C(OC(C)=O)C1OC(C)=O (stereo not given)', '> 100 µM'),
  ('COc1cc2cc(C(=O)N3CC(CCl)c4ccc([N+](=O)[O-])cc43)[nH]c2c(OC)c1OC (stereo not given)', '> 100 µM'),
  ('NS(=O)(=O)c1ccc(NC(=O)Cc2nc3ccccc3s2)cc1', '29.4 µM'),
  ('C#Cc1cccc(Nc2ncnc3ccc(OCCCCNCCS(C)(=O)=O)cc23)c1', '9.66 µM'),
  ('O=C(O)C1(Cc2ccccc2)Cc2cc3c(cc2C1)CCC3', '> 100 µM'),
  ('CC1(C)N=C(N)N=C(N)N1c1ccc(Cl)cc1', '> 100 µM'),
  ('COC(=O)c1ncc2c(=O)[nH]c3ccccc3c2c1C(=O)OC', '> 100 µM'),
  ('CCOC(=O)Cc1nnc2n(-c3ccccc3)c(=O)c3ccccc3n12', '> 100 µM'),
  ('O=[N+]([O-])c1cccc(-c2ncc3c(n2)-c2ccccc2C3)c1', '> 100 µM'),
  ('NC(CCOCCP(=O)(O)CCC1C=CC=CC1)C(=O)O (stereo not given)', '> 100 µM'),
  ('O=C(NCCCl)Nc1cccnc1', '> 100 µM'),
  ('CC(C)(C)C(=O)Nc1cccc2oc(-c3ccccc3)cc12', '> 100 µM'),
  ('O=C1OC(C2Cc3ccc4c(c3C2=O)CCC4)c2ccccc21 (stereo not given)', '> 100 µM'),
  ('NC(=O)C1CCCN1C(=O)C(N)Cc1ccccc1 (stereo not drawn) (H-Phe-Pro-NH2; configuration not given here)', '> 100 µM'),
  ('COc1cc(CNCCN2C(=O)c3ccc4c5c(ccc(c35)C2=O)C(=O)N(CCNCc2cc(OC)c(OC)c(OC)c2)C4=O)cc(OC)c1OC', '1.4 µM'),
  ('CCN1c2cc(Br)cc3[nH]c(=O)n(c23)CCC1C (stereo not given)', '34.8 µM'),
  ('C/C(=N\OCC(O)CNCCSCc1ccccc1)c1ccccc1Cl (stereo not given)', '48 µM');

====

# Tested on: MDA-MB-435
# measurementDescription: NCI tumour cell line growth inhibition, 48 h
Some molecules, each annotated with its measured TGI.
measurementLabel: TGI

INSERT INTO results (molecule, measurementlabel, recordedvalue) VALUES
  ('OC[C@H]1NC[C@@H](O)[C@@H](O)[C@H]1O', 'TGI', '> 100 µM'),
  ('C=CC(=O)N1C[C@@H]2CCOc3c(Cl)c(-c4c(O)cccc4F)c(F)c4ncnc(c34)N2C[C@H]1C', 'TGI', '29.6 µM'),
  ('O=C(c1ccccc1Cl)n1oc2ccccc2c1=O', 'TGI', '> 100 µM'),
  ('CC1=C(C)C(=O)O[C@@H]([C@](C)(O)[C@]2(O)CC[C@@]3(O)[C@@H]4C[C@H](O)[C@]5(O)[C@@H](O)C=CC(=O)[C@]5(C)[C@H]4CC[C@]23C)C1', 'TGI', '> 100 µM'),
  ('C/C(=N\OCC(O)CNCCSCc1ccccc1)c1ccccc1Cl (stereo not drawn)', 'TGI', '34.4 µM'),
  ('CC(C)(C)C1CCC2c3c([nH]c4ccccc34)C3C(=O)N(c4ccccc4[N+](=O)[O-])C(=O)C3C2C1 (stereo not drawn)', 'TGI', '> 100 µM'),
  ('COc1cc2cc(C(=O)N3CC(CCl)c4ccc([N+](=O)[O-])cc43)[nH]c2c(OC)c1OC (stereo not drawn)', 'TGI', '> 100 µM'),
  ('CCOC(=O)Cc1nnc2n(-c3ccccc3)c(=O)c3ccccc3n12', 'TGI', '> 100 µM'),
  ('CC(=O)OCC1OC(c2c(OC(C)=O)cc(C)c3c(=O)cc(/C(C(C)=O)=C(\C)O)oc23)C(OC(C)=O)C(OC(C)=O)C1OC(C)=O (stereo not drawn)', 'TGI', '> 100 µM'),
  ('COc1ccc2c(=O)cc(-c3ccc(OC)c(OC)c3OC)oc2c1', 'TGI', '> 100 µM'),
  ('CCCCCCn1c(SC)nc(COC(=O)NC)c1COC(=O)NC', 'TGI', '41.9 µM'),
  ('C#Cc1cccc(Nc2ncnc3ccc(OCCCCNCCS(C)(=O)=O)cc23)c1', 'TGI', '12.5 µM'),
  ('CCOC(=O)Cn1c2ccc(Br)cc2c2nc3ccccc3nc21', 'TGI', '> 100 µM'),
  ('COc1ccc2nc3c([N+](=O)[O-])ccc4c3c(c2c1)NCCN4CCN(C)C', 'TGI', '3.49 µM'),
  ('CCOC(=O)C1(C#N)C(=O)c2cc[n+](CC[n+]3ccc4c(c3)C(=O)C(C#N)(C(=O)OCC)C4=O)cc2C1=O (stereo not drawn)', 'TGI', '> 100 µM'),
  ('CCCCCCCCCCCCCCCCCCNc1ccn(C2OC(CO)C(OP(=O)(O)OCC(O)COP(=O)(O)OCC3OC(n4cc(F)c(NCCCCCCCCCCCCCCCCCC)nc4=O)CC3O)C2O)c(=O)n1 (stereo not drawn)', 'TGI', '> 50 µM'),
  ('COc1cc(C2OC(N)=C(C#N)C3=C2C(C)CCC3)cc(OC)c1OC (stereo not drawn)', 'TGI', '> 100 µM'),
  ('O=C(NCCC1CN(C(=O)OCc2ccccc2)c2ccccc21)OCc1ccccc1 (stereo not drawn)', 'TGI', '> 100 µM');
